Biological target: CDK9/T1 (Homo sapiens)
Sequence (P50750 whole entry): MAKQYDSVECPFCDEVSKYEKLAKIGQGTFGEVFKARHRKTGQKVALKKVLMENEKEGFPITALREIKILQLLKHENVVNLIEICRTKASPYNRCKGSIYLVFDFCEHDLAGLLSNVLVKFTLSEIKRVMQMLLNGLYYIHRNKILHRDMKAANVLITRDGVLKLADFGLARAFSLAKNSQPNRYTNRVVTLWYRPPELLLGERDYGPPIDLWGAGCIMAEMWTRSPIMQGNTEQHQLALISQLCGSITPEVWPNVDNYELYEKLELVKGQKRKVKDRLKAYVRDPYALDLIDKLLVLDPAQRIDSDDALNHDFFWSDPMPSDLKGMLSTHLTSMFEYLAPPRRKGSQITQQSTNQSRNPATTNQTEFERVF
Sequence (O60563 whole entry partner): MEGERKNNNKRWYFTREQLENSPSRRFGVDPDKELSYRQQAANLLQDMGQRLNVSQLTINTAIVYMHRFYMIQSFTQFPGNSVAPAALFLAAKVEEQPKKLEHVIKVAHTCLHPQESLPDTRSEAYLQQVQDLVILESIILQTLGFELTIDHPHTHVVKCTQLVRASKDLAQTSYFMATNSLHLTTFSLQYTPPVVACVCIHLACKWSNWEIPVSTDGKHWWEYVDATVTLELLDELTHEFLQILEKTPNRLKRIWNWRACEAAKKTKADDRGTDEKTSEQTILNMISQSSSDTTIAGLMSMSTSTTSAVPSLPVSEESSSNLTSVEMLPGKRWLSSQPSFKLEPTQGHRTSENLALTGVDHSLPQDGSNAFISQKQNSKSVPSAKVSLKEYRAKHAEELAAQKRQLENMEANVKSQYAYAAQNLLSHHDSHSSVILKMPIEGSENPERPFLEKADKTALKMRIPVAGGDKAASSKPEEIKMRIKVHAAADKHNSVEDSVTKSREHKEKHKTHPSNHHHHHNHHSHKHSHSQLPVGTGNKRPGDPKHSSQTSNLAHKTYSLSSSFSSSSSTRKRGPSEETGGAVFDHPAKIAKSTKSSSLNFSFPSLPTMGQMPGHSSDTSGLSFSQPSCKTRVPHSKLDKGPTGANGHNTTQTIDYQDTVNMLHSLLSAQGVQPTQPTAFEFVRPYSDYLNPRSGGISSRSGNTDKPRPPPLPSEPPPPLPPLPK
Assay: ADP Glo Kinase assay CDK9/T1
Type: biochemical
Conditions: CDK9T1; read-out: CDK inhibition, Ki (μM) CDK9T1
# if measured Ki < 1 µM: label 1  # else: label 0

[[record]]
compound = "Fc1cnc(NC2CCNCC2)nc1-c1cnc2ccc(-c3ccccc3)cn12 [Compound 143]"
label_class = "label 1"

[[record]]
compound = "Cc1cnc(N[C@H]2CC[C@H](N3CCC3)CC2)nc1-c1cnc2ccc(Nc3cncc(F)c3)cn12 [Compound 139]"
label_class = "label 1"

[[record]]
compound = "Cc1cnc(N2CCC3(CCNC3=O)CC2)nc1-c1cnc2ccccn12 [Compound 124]"
label_class = "label 0"

[[record]]
compound = "Fc1cnc(NC2CCN(CC3CCCC3)CC2)nc1-c1cnc2ccc(-c3ccccc3)cn12 [Compound 146]"
label_class = "label 0"

[[record]]
compound = "N[C@H]1CC[C@H](Nc2ncc(F)c(-c3cnc4ccccn34)n2)CC1 [Compound 1]"
label_class = "label 1"

[[record]]
compound = "N[C@H]1CC[C@H](Nc2ncc(F)c(-c3cnc4ccc(NC(=O)c5ccc(F)cc5)cn34)n2)CC1 [Compound 51]"
label_class = "label 1"

[[record]]
compound = "CCN[C@H]1CC[C@@H](Nc2ncc(C)c(-c3cnc4ccc(-c5ccccc5)cn34)n2)CC1 [Compound 132]"
label_class = "label 0"


* * *

Biological target: CDKs and other kinases (Homo sapiens)
Construct: other: CDK2A; residual activity (%) at 10 μM CDK2A; compound at 10 μM
Test: Radiometric kinase assay (Eurofins Pharma Discovery or Reaction Biology Corporation Kinase Profiler)
Format: biochemical
Conditions: CDK2A; compound at 10 μM; read-out: residual activity (%) at 10 μM CDK2A
attribute.measured: remaining activity at 10 µM (%)

[[record]]
compound = "Cc1cnc(N[C@]23C[C@@]4(C)C[C@](C)(C[C@](O)(C4)C2)C3)nc1-c1cnc2ccc(Nc3cncnc3)cn12"
recorded_result = 22

[[record]]
compound = "Cc1cnc(N[C@H]2CC[C@@H](N)CC2)nc1-c1cnc2ccc(-c3ccccc3)cn12"
recorded_result = 7

[[record]]
compound = "Cc1cnc(N[C@H]2CC[C@H](N)CC2)nc1-c1cnc2cc(C(F)(F)F)c(Br)cn12"
recorded_result = 28

[[record]]
compound = "CCOc1ccc(Nc2ccc3ncc(-c4nc(N[C@H]5CC[C@H](N)CC5)ncc4C)n3c2)cn1"
recorded_result = 10

[[record]]
compound = "CN(C)S(=O)(=O)c1ccc(-c2ccc3ncc(-c4nc(N[C@H]5CC[C@H](N)CC5)ncc4F)n3c2)cc1"
recorded_result = 3

[[record]]
compound = "Cc1cnc(N[C@H]2CC[C@H](N)CC2)nc1-c1cnc2ccc(-c3ccc(S(=O)(=O)N(C)C)cc3)cn12"
recorded_result = 72

[[record]]
compound = "Cc1cnc(NC2CCCC(N)C2)nc1-c1cnc2ccc(Nc3cncnc3)cn12 (stereo not drawn)"
recorded_result = 37

[[record]]
compound = "Cc1cnc(N[C@H]2CC[C@H](C)CC2)nc1-c1cnc2ccc(-c3ccccc3)cn12"
recorded_result = 87

[[record]]
compound = "Fc1cnc(N[C@H]2CC[C@H](NC3CCOCC3)CC2)nc1-c1cnc2ccc(-c3ccccc3)cn12"
recorded_result = 6

[[record]]
compound = "CN1CCC(Nc2ncc(F)c(-c3cnc4ccc(-c5ccc(S(=O)(=O)N(C)C)cc5)cn34)n2)CC1"
recorded_result = 46

[[record]]
compound = "CCN[C@H]1CC[C@@H](Nc2ncc(C)c(-c3cnc4ccc(-c5ccccc5)cn34)n2)CC1"
recorded_result = 23

[[record]]
compound = "Fc1cnc(N[C@H]2CC[C@H](N3CCCC3)CC2)nc1-c1cnc2ccc(-c3ccccc3)cn12"
recorded_result = 0

[[record]]
compound = "Cc1cnc(N[C@H]2CN3CCC2CC3)nc1-c1cnc2ccc(Nc3cncnc3)cn12"
recorded_result = 59

[[record]]
compound = "N[C@H]1CC[C@H](Nc2ncc(Cl)c(-c3cnc4cc(-c5ccccc5)ccn34)n2)CC1"
recorded_result = 0

[[record]]
compound = "O[C@H]1CC[C@H](Nc2ncc(Cl)c(-c3cnc4ccc(-c5cccnc5)cn34)n2)CC1"
recorded_result = 8

